# System: DU-145 prostate
# MEASUREMENT_PROTOCOL: NCI tumour cell line growth inhibition, 48 h; in the data active = GI50 below about 0.43 µM; inactive = the rest
Classes used: 1 = active, 0 = inactive

- COMPOUND: "C1=N[C@]23C(=N[C@H](N=C2NCc2ccco2)[C@]24N=CNC2=N[C@H]3N=C4NCc2ccco2)N1"
  CLASS: 0
- COMPOUND: "C=CC(=O)N[C@@H]1CN(c2nc(Nc3cn(C)nc3OC)c3ncn(C)c3n2)C[C@H]1F"
  CLASS: 0
- COMPOUND: "Oc1ccc(NC(=S)Nc2ccccc2)cc1"
  CLASS: 0
- COMPOUND: "Cc1nc2ccccn2c1NC(=O)NN1C(=O)CSC1c1ccc(Cl)cc1 (stereo not given)"
  CLASS: 0
- COMPOUND: "CC/C=C\\C[C@H]1C/C=C2/C(=O)C=C[C@H]2C/C=C\\CCCC(=O)O1"
  CLASS: 0
- COMPOUND: "C[C@@H](O)[C@@H](C)Oc1nc(Nc2ccc(S(=N)(=O)C3CC3)cc2)ncc1C(F)(F)F (stereo not given in full)"
  CLASS: 1
- COMPOUND: "COc1ccccc1-n1cnc(N)c1C(=O)c1cc(OC)c(OC)c(OC)c1"
  CLASS: 0
- COMPOUND: "CN(C)c1ccc(C(=S)c2ccc(N(C)C)cc2)cc1"
  CLASS: 0
- COMPOUND: "C[C@H]1CCC/C=C/C2CC(OC(=O)CN(C)C)CC2C(OC(=O)CN(C)C)/C=C/C(=O)O1 (stereo not given in full)"
  CLASS: 0
- COMPOUND: "Cc1nnc(C[C@@H]2C=C(c3ccc(Cl)cc3)c3ccccc3-n3c(C)nnc32)o1"
  CLASS: 0

---

# Test system: ACHN renal
# MEASUREMENT_PROTOCOL: NCI tumour cell line growth inhibition, 48 h; in the data active means GI50 below about 0.43 µM; inactive means the rest
Classes used: active, inactive

- COMPOUND: "O=CC(OC(=O)c1ccccc1)C(OC(=O)c1ccccc1)C(COC(c1ccccc1)(c1ccccc1)c1ccccc1)OC(=O)c1ccccc1 (stereo not drawn)"
  TARGET_UNDER_TEST: "ACHN renal"
  CLASS: "inactive"
- COMPOUND: "C=CC(=O)N[C@@H]1CN(c2nc(Nc3cn(C)nc3OC)c3ncn(C)c3n2)C[C@H]1F"
  TARGET_UNDER_TEST: "ACHN renal"
  CLASS: "inactive"
- COMPOUND: "CCn1cnc(C[C@H](NC(=O)[C@H](CCCCNC(=O)Nc2cc(C(F)(F)F)cc(C(F)(F)F)c2)NC(=O)Nc2cc(C(F)(F)F)cc(C(F)(F)F)c2)C(=O)OC)c1"
  TARGET_UNDER_TEST: "ACHN renal"
  CLASS: "inactive"
- COMPOUND: "CNC(=O)c1cc(Oc2ccc3nc(NC(=O)Nc4ccc(CN5CCOCC5)c(C(F)(F)F)c4)sc3c2)ccn1"
  TARGET_UNDER_TEST: "ACHN renal"
  CLASS: "inactive"
- COMPOUND: "CC[C@@]1(O)C(=O)OCc2c1cc1n(c2=O)Cc2cc3cc(Cl)ccc3nc2-1"
  TARGET_UNDER_TEST: "ACHN renal"
  CLASS: "active"
- COMPOUND: "COc1ccc(-n2cc(-c3cc(OC)c(OC)c(OC)c3)nc2SCc2ccc(Cl)cc2)cc1OC"
  TARGET_UNDER_TEST: "ACHN renal"
  CLASS: "inactive"
- COMPOUND: "COc1cccc(/C=N/[N-]C(=O)c2ccncc2)c1[O-].[Mn+2].[OH3+]"
  TARGET_UNDER_TEST: "ACHN renal"
  CLASS: "inactive"
- COMPOUND: "O=C1Cc2c(-c3ccccc3)cc(-c3ccccc3)nc2-c2ccccc2N1"
  TARGET_UNDER_TEST: "ACHN renal"
  CLASS: "inactive"
